Quick reference for IC95 among some compounds
# System: acute HIV infection of T-lymphoid cells
# METHOD DESCRIPTION: Assay for inhibition of HIV replication (spread assay)
# Type: cell-based, HIV-1
# ASSAY SETUP: Human immunodeficiency virus 1, T-lymphoid; read-out: Spread - IC95
Reply numerically in nM, unit not repeated.

Example compounds with recorded IC95:
COMPOUND | UNIT INFO | READOUT NUMBER
COC(=O)N[C@@H](Cc1ccccc1Cl)C(=O)N[C@H](CCC[C@@H](CO)N(CCC(C)C)S(=O)(=O)c1ccc(CO)cc1)C1CC1 | nM | 63
COC(=O)N[C@@H](Cc1cccc(Cl)c1Cl)C(=O)N[C@@H](C)CCC[C@@H](CO)N(C(C)C)S(=O)(=O)c1ccc(N)cc1 | nM | 58
CCCN([C@H](CO)CCCC(C)(C)NC(=O)[C@@H](NC(=O)OC)C(c1ccccc1)c1ccccc1)S(=O)(=O)c1ccc(N)cc1 | nM | 196
COC(=O)N[C@H](C(=O)NC1(CCCC(CO)N(CCC(C)C)S(=O)(=O)c2ccc(N)cc2)CCC1)C(c1ccccc1)c1ccccc1 (stereo partly drawn) | nM | 471

Query string: Bench note: what IC95 did C=C[C@H](CCC[C@@H](CO)N(CCC(C)C)S(=O)(=O)c1ccc(CO)cc1)NC(=O)[C@@H](NC(=O)OC)C(c1ccccc1)c1ccccc1 show?
Result string: 107

Query string: Item: COC(=O)N[C@H](C(=O)N[C@H](CCC[C@@H](CO)N(CCC(C)C)S(=O)(=O)c1ccc(N)cc1)C1CC1)C(c1ccccc1)c1ccccc1 [Example E1]
Result string: 11

Query string: Likewise for COC(=O)N[C@H](C(=O)N[C@H](CCC[C@@H](CO)N(C(C)C)S(=O)(=O)c1ccc(N)cc1)C1CC1)C(c1ccccc1)c1ccccc1 ?
Result string: 43

Query string: Now consider CC[C@@H](CCC[C@@H](CO)N(CCC(C)C)S(=O)(=O)c1ccc(CO)cc1)NC(=O)[C@@H](NC(=O)OC)C(c1ccccc1)c1ccccc1 and answer again.
Result string: 9

Query string: // repeat for COC(=O)N[C@H](C(=O)N[C@H](CCC[C@@H](CO)N(C(C)C)S(=O)(=O)c1ccc(CO)cc1)C1CC1)C(c1ccccc1)c1ccccc1 and report
Result string: 50

Query string: // repeat for CCCN([C@H](CO)CCC[C@H](CC)NC(=O)[C@@H](NC(=O)OC)C(c1ccccc1)c1ccccc1)S(=O)(=O)c1ccc(CO)cc1 and report
Result string: 20

Query string: Quick one: CC[C@@H](CCC[C@@H](CO)N(CCC(C)C)S(=O)(=O)c1ccc(CO)cc1)NC(=O)[C@@H](NC(=O)OC)C(c1ccc(Cl)cc1)c1ccc(Cl)cc1
Result string: 126

Query string: Next compound up: COC(=O)N[C@H](C(=O)N[C@H](CCC[C@@H](CO)N(CCC(C)C)S(=O)(=O)c1ccc(N)cc1)C(C)C)C(c1ccccc1)c1ccccc1
Result string: 37

----------
Listing of entries alongside the reported log10 of IC50.
# SYSTEM TESTED: wild-type HIV-1 protease (Human immunodeficiency virus type 1 group M subtype B, UniProt P04585)
# METHOD DESCRIPTION: Assay for inhibition of microbial expressed HIV protease
# Assay type: biochemical
# ASSAY SETUP: wild-type HIV-1 protease expressed in E. coli, peptide substrate, pH 5.5; read-out: Enzyme Inhibition - IC50
In our notation, the value equals log10 of IC50 in pM.

Use these answered entries as a reference point.
COMPOUND | READOUT NUMBER
COC(=O)N[C@H](C(=O)N[C@H](CCC[C@@H](CO)N(CCC(C)C)S(=O)(=O)c1ccc(CO)c(F)c1)C1CC1)C(c1ccc(F)cc1)c1ccc(F)cc1 [Example E2] | 1.23
COC(=O)N[C@H](C(=O)N[C@H](CCC[C@@H](CO)N(CCC(C)C)S(=O)(=O)c1ccc(N)c(F)c1)C1CC1)C(c1ccccc1)c1ccccc1 [Example E3] | 1.76
CCC[C@@H](CCC[C@@H](CO)N(CCCF)S(=O)(=O)c1ccc(N)cc1)NC(=O)[C@@H](NC(=O)OC)C(c1ccccc1)c1ccccc1 [Example D13] | 2.94
C#C[C@@H](CCC[C@@H](CO)N(CCC(C)C)S(=O)(=O)c1ccc(CO)cc1)NC(=O)[C@@H](NC(=O)OC)C(c1ccccc1)c1ccccc1 [Example J13] | 1.00

Query string: Entry CCCN([C@H](CO)CCC[C@H](CC)NC(=O)[C@@H](NC(=O)OC)C(c1ccccc1)c1ccccc1)S(=O)(=O)c1ccc(N)cc1 [Example F5] has what log10 of IC50?
Result string: 2.21

Query string: Same read-out for CC[C@@H](CCC[C@@H](CO)N(C(C)C)S(=O)(=O)c1ccc(CO)cc1)NC(=O)[C@@H](NC(=O)OC)C(c1ccccc1)c1ccccc1 [Example G19] ?
Result string: 1.88
